- Tested on: A549
- TEST SUMMARY: Solid tumor cell growth inhibition, MTT, 72 h
- Assay type: cell-based
- SETUP CONDITIONS: Homo sapiens
- Protocol: 6000 well-growing human solid tumor cells were obtained and inoculated into wells of a 96-well cell culture plate. The culture medium was DMEM High Glucose cell culture medium containing 10% fetal bovine serum. The plate was placed in a carbon dioxide cell incubator (5% CO2) at 37° C. and incubated for 24 hours. […] Then the viable cell concentration was determined by MTT method.

QUERY SMILES	IC50 / µg/mL
C=C1C(=O)[C@]23[C@H](OC(=O)c4ccccc4Cl)[C@H]1CC[C@H]2[C@@]12CO[C@@]3(O)[C@@H](O)[C@@H]1C(C)(C)CCC2=O	2.82
C=C1C(=O)[C@]23[C@H](OC(=O)C4CCN(S(=O)(=O)c5ccccc5)CC4)[C@H]1CC[C@H]2[C@@]12CO[C@@]3(O)[C@@H](O)[C@@H]1C(C)(C)CCC2=O	5.68
C=C1C(=O)[C@]23[C@H](OC(=O)C4CCN(S(=O)(=O)c5ccccc5[N+](=O)[O-])CC4)[C@H]1CC[C@H]2[C@@]12CO[C@@]3(O)[C@@H](O)[C@@H]1C(C)(C)CCC2=O	6.43
C=C1C(=O)[C@]23[C@H](OC(=O)/C=C/c4ccccc4)[C@H]1CC[C@H]2[C@@]12CO[C@@]3(O)[C@@H](O)[C@@H]1C(C)(C)CC[C@@H]2OC(C)=O	2.87
C=C1C(=O)[C@]23[C@H](OC(=O)/C=C/c4ccccc4)[C@H]1CC[C@H]2[C@@]12CO[C@@]3(O)[C@@H](O)[C@@H]1C(C)(C)CCC2=O	1.66
C=C1C(=O)[C@]23[C@H](OC(=O)C4CC4)[C@H]1CC[C@H]2[C@@]12CO[C@@]3(O)[C@@H](O)[C@@H]1C(C)(C)CCC2=O	2.93
C=C1C(=O)[C@]23[C@H](O)[C@H]1CC[C@H]2[C@@]12CO[C@]3(O)[C@@H](O)[C@@H]1C(C)(C)CC[C@@H]2O	13.7
C=C1C(=O)[C@]23[C@H](OC(=O)c4cccs4)[C@H]1CC[C@H]2[C@@]12CO[C@@]3(O)[C@@H](O)[C@@H]1C(C)(C)CCC2=O	2.13
C=C1C(=O)[C@]23[C@H](OC(=O)c4ccccc4Br)[C@H]1CC[C@H]2[C@@]12CO[C@@]3(O)[C@@H](O)[C@@H]1C(C)(C)CCC2=O	2.76
C=C1C(=O)[C@]23[C@H](OC(=O)c4cccnc4)[C@H]1CC[C@H]2[C@@]12CO[C@@]3(O)[C@@H](O)[C@@H]1C(C)(C)CCC2=O	5.58
C=C1C(=O)[C@]23[C@H](OC(=O)c4ccc(Cl)cc4)[C@H]1CC[C@H]2[C@@]12CO[C@@]3(O)[C@@H](O)[C@@H]1C(C)(C)CC[C@@H]2OC(C)=O	1.78
